Cited source for all entries: PubChem BioAssay AID493162

system: Vaccinia virus DNA polymerase (E9) processive complex; assay: vaccinia E9 polymerase processive synthesis inhibitors, primary screen, biochemical, absorbance (AID 493162); details: in vitro processive DNA synthesis, absorbance read-out; concentration not given here
The whole screen tested about 46,000 compounds, of which about 430 (0.93%) were called active. Cut-off read from the data, not from the text of the source: active = normalized absorbance mostly below about 85% (no sharp cut-off); inactive = mostly above about 86%. This is one part of a sample in which actives are shown more often than they occur.
Outcome field: choose from TRUE (active), FALSE (inactive)

Below are worked cases with known answers.
COc1ccc(C2C=C(c3ccccc3)NC(=O)C2C#N)cc1 (stereo unspecified) | FALSE
O=C(O)c1ccc(N=Cc2ccc(OC(=O)c3sc4ccccc4c3Cl)cc2)cc1 | FALSE
CC(c1ccco1)N(C(=O)c1cccnc1Cl)c1ccccn1 (stereo unspecified) | FALSE

Assay outcome for CC(C)(C)c1cn2c3ccccc3nc2n1CCCO : what was it?
FALSE

Assay outcome for COC(=O)c1c(NC(NC(C)=O)(C(F)(F)F)C(F)(F)F)sc2c1CCN(C)C2 : what was it?
FALSE

Assay outcome for Cc1ccc(NC(=O)/C=C/c2ccc(Br)o2)cc1 : what was it?
FALSE

Assay outcome for Nc1[nH]c(=S)sc1C(=O)Nc1nccs1 : what was it?
TRUE

Assay outcome for COc1ccc(NC(=O)C(C)n2cccc2)cc1 (stereo unspecified) : what was it?
FALSE

Assay outcome for Cc1cc(C(=O)OCC(=O)N2C(C)CCCC2C)c2ccccc2n1 (stereo unspecified) : what was it?
FALSE

Assay outcome for CCOc1ccc(C(=O)Nc2nc3c(OC)cccc3s2)cc1 : what was it?
FALSE

Assay outcome for CC(=O)N1CCc2c(sc(NC(=O)C(C)C)c2C(N)=O)C1 : what was it?
FALSE

====

tested on: Vaccinia virus DNA polymerase (E9) processive complex; experiment: vaccinia E9 polymerase processive synthesis inhibitors, primary screen, biochemical, absorbance (AID 493162); details: in vitro processive DNA synthesis, absorbance read-out; stronger effect = lower value; concentration not given here
About 430 (0.93%) of roughly 46,000 compounds were called active. Shown is part of a subset that was picked to be rich in actives.
readoutLabel: normalized absorbance (%)
Answers are plain numbers, in %.

Solved entries (count: 2):
C=CCSc1nc2ccccc2[nH]1 | 89.7
CN(C)c1nc(NCc2ccccc2)nc(Nc2ccc(OC(F)(F)F)cc2)n1 | 100

For every item below, please supply its normalized absorbance.
1. COCCn1cc(C(=O)NC2CCCCCC2)c2c3ccccc3n(C)c2c1=O
2. CNC(=O)CSc1nc2ccccc2[nH]1

102
99.5

Which normalized absorbance is reported with Vaccinia virus DNA polymerase (E9) processive complex for this entry: COc1ccc(/C=N/n2c(C)cc(C)cc2=O)cc1 ?
100

====

test system: Vaccinia virus DNA polymerase (E9) processive complex; experiment: vaccinia E9 polymerase processive synthesis inhibitors, primary screen, biochemical, absorbance (AID 493162); conditions: in vitro processive DNA synthesis, absorbance read-out; stronger effect = lower value; concentration not given here
In all, about 46,000 compounds went through this assay and about 430 (0.93%) were called active. This is one part of a sample in which actives are shown more often than they occur.
Assign normalized absorbance to each entry below.
Give bare numbers, in %.

Cc1ccc(-c2cn3nc(N4CCC(C(=O)NCCCN5CCCCC5)CC4)sc3n2)cc1 | 104
CC(=O)Nc1ccc(N2C(=O)C=CC2=O)cc1 | 124
Cc1ccc2nc(C)c3c(c2c1)N(c1ccccc1)CC3 | 61.5

For every item below, please supply its normalized absorbance.
1. OC1CCN(c2ncc(C(F)(F)F)cc2Cl)CC1
2. C/C(CCc1ccc2c(c1)OCO2)=N\N1C(=N)SC(C(=O)Nc2ccc(C(=O)O)cc2)CC1=O (configuration not stated)
3. Cc1ccc2nc(Nc3ccccc3)cc(C)c2c1
4. COc1ccc(C2CC(=O)n3nc(-c4ccccc4)nc3S2)cc1OC (configuration not stated)
5. CCn1c(CNC(C)=O)nc2ccccc21
6. CC(C)(C)S(=O)(=O)c1cccs1
7. O=C(O)CCc1nnc2ccc(N3CCCC3)nn12
8. O=S(=O)(c1cccc2cccnc12)N1CCN(c2cccc(Cl)c2)CC1

[105, 100, 100, 100, 101, 90.5, 103, 101]

Could you tell me which normalized absorbance is on file for O=P(O)(CN1CCCCCC1)C1Cc2ccccc2C1 ?
84.6
